biological target: Fibroblast growth factor 10 (Homo sapiens); test: FGF10 binders on small-molecule microarrays, primary screen, biochemical, small-molecule microarray, 635 nm fluorescence (AID 1102); conditions: FGF10 binding, fluorescence 635 nm, higher = more signal
reported endpoint: composite z-score
Would you mind answering with just the numeric figure?

compound	assay value
COC(=O)[C@@]1(Cc2ccc(OC)cc2)[C@H]2c3cc(C(=O)N4CCCC4)n(Cc4cc(C)n(C)n4)c3C[C@H]2CN1C(=O)c1ccccc1	1.32
C=C[C@@H](OC)[C@H](OC(=O)Nc1ccc(OC)cc1)c1ccc(OC)c(O)c1	-0.818
COCCOC(=O)N1C(=O)[C@@]2(c3cc(C#CCCO)ccc31)[C@H](C(=O)N1CCCCCCC1)[C@H]1C(=O)O[C@H](c3ccccc3)[C@H](c3ccccc3)N1[C@@H]2c1ccccc1OCCO	0.663
CC(C)[Si]1(C(C)C)OCc2cc(-c3ccc(-c4ccc(Cl)c(Cl)c4)o3)nc(CCc3ccccc3)c21	0.187
CCOC(=O)C=Cc1cc(F)ccc1O	0.168

Request: composite z-score, test system Fibroblast growth factor 10 (Homo sapiens), entry C#C[C@@H](CC)O[Si](C#CCCCC#N)(C(C)C)C(C)C
-0.232

Also Cc1c(NC(=O)/C(C#N)=C/c2ccccc2Cl)c(=O)n(-c2ccccc2)n1C , if possible.
0.185

Param item: O=C1O[C@H](c2ccccc2)[C@H](c2ccccc2)N2[C@H]1[C@@H](C(=O)N1CCCCCCC1)[C@]1(C(=O)Nc3ccc(C#CC4(O)CCCCCC4)cc31)[C@H]2c1ccc(O)cc1
1.19

Follow-up entry: CN(C)C(=O)[C@@]1(Cc2ccccc2)COC(c2ccc(OCCCO)cc2)=N1
-0.304

Quick one: CN(C)C(=O)[C@@]1(CCC(=O)OC(C)(C)C)N=C(c2ccc(OCCCO)cc2)O[C@H]1c1ccccc1CN=[N+]=[N-]
0.965

Next: CC1CC/C=C\[C@H]2OC34C=CCN(C(C)(C)C)C(=O)[C@H]3N(C(CO)C(C)C)C(=O)[C@@H]4C2C(=O)O1 (stereo not given in full)
0.352

Then CCOC(=O)C1=CCN(S(=O)(=O)c2ccc(C)cc2)C1c1ccccc1 (stereo not given) ?
1.19

Would you kindly repeat that for CO[C@H]1O[C@H](CO)[C@@H](OC(=O)Nc2ccc(C#N)cc2)[C@@H]2OC(=O)[C@H](Cc3cccc(Br)c3)C/C=C/C[C@@H](Cc3cccc(Br)c3)C(=O)O[C@@H]12 ?
0.788

Then O=C1C2C=CC(C(O)c3ccc(I)cc3)N(Nc3ccccc3)C2C(=O)N1c1ccccc1 (stereo not given) ?
0.455

Continue with C=CCC(OC(C)=O)[C@@H]1[C@@H](N(Cc2cccc3ccccc23)C(=O)c2cccc3ccccc23)c2cc(OCCCO)ccc2N1C(=O)c1ccc2ccccc2c1 (stereo not given in full)
0.523

Note, next up: COC(=O)[C@@]1(Cc2ccc(F)cc2)[C@H]2c3cc(C(=O)N(C)C)n(Cc4ccc(O)c(OC)c4)c3C[C@H]2CN1C(=O)c1ccccc1
0.448

Item: C=CCNC(=O)[C@H]1[C@@H]2C(=O)O[C@@H](c3ccccc3)[C@@H](c3ccccc3)N2[C@@H](c2ccc(OCCO)cc2)[C@]12C(=O)Nc1ccc(C#CCNC(N)=O)cc12
1.13

Also need COC(=O)[C@@]1(Cc2ccccc2CN=[N+]=[N-])N=C(c2ccc(OCCCO)cc2)O[C@H]1c1ccccc1CN=[N+]=[N-] , thanks.
-0.304
